Target: human GPR43 (Homo sapiens (Human), UniProt O15552)
Sequence (O15552 whole entry): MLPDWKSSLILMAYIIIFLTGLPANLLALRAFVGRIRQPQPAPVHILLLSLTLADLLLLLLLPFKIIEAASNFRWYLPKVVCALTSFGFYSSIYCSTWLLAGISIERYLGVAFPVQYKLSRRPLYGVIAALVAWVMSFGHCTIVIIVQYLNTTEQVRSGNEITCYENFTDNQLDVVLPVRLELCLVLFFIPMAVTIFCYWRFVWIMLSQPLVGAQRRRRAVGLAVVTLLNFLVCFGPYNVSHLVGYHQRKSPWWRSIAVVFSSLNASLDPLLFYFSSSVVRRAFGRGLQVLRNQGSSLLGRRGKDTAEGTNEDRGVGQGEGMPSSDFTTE
Assay: Ca-Flux functional assay: determination of agonist/positive allosteric modulator (PAM) activity
Type: cell-based
Conditions: CHO-K1 Gα16 cells stably expressing human GPR43; compound added with EC20 sodium acetate; intracellular Ca2+ by FLIPR; does not distinguish agonist from PAM
reportedEndpoint: EC50 (nM)
API: value field is a number in nM; no unit string.

CN(Cc1ccccn1)c1ncnc2c(S(=O)(=O)c3ccccc3)c(N)[nH]c12 has a reported EC50 of 7130

COc1ccc(S(=O)(=O)c2c(N)[nH]c3c(N4CCOC(C)(C)C4)nc(C)nc23)cc1 has a reported EC50 of 15

Cc1nc(N2CCO[C@@H](CF)C2)c2[nH]c(N)c(S(=O)(=O)c3ccccc3F)c2n1 has a reported EC50 of 1

CCC1CN(c2ncnc3c(S(=O)(=O)c4ccccc4)c(N)[nH]c23)CCO1 (stereo not shown) has a reported EC50 of 40

----------
Biological target: human GPR43 (Homo sapiens (Human))
Experiment: Ca-Flux functional assay: determination of agonist/positive allosteric modulator (PAM) activity
Conditions: CHO-K1 Gα16 cells stably expressing human GPR43; compound added with EC20 sodium acetate; intracellular Ca2+ by FLIPR; does not distinguish agonist from PAM
Kindly state pEC50 for each of the entries shown.
FYI, pEC50 means -log10 of a concentration in mol per litre.

Cc1nc(OC2CCOC(C)(C)C2)c2[nH]c(N)c(S(=O)(=O)c3ccccc3F)c2n1 (stereo not drawn) has a reported pEC50 of 7.20

Nc1[nH]c2c(N3CCOC(C4CC4)C3)ncnc2c1S(=O)(=O)c1ccccc1 (stereo not drawn) has a reported pEC50 of 6.88

Nc1[nH]c2c(N3CCOC4CCCC43)ncnc2c1S(=O)(=O)c1ccccc1 (stereo not drawn) has a reported pEC50 of 7.21

Source listed as patent US10059713B2.
